Task for the reader: assign each of the following compounds its reported Growth Rate.
Test system: U2OS
Assay: Incucyte cell viability with U2OS; note: unitless GR value; below 1 slowed growth and below 0 cell loss
Format: toxicity, cell-based
Settings: human, 24 h, 10 µM, compound concentration 10 uM, replicate number 2

**Query** Report Growth Rate, nothing else, for this compound: O=C(C1CC1)N1CC[C@@H](Cc2n[nH]c(=O)n2-c2ccc(-c3ccc4occc4c3)cc2)C1
**Result** 0.69

**Query** Report Growth Rate, nothing else, for this compound: Cc1cc(-c2ccc3nc(C4CCOCC4)n(CCOC(F)(F)F)c3c2)cn(C)c1=O
**Result** 0.68

**Query** Report Growth Rate, nothing else, for this compound: C[C@@H]1CN(c2ncc(Cl)c(Nc3ccc4c(c3)n(CCC(C)(C)O)c(=O)n4C)n2)C[C@H](C)C1(F)F
**Result** 0.69
